biological target: Prostaglandin G/H synthase 2 (Homo sapiens); format: functional
Sequence (P35354 whole entry): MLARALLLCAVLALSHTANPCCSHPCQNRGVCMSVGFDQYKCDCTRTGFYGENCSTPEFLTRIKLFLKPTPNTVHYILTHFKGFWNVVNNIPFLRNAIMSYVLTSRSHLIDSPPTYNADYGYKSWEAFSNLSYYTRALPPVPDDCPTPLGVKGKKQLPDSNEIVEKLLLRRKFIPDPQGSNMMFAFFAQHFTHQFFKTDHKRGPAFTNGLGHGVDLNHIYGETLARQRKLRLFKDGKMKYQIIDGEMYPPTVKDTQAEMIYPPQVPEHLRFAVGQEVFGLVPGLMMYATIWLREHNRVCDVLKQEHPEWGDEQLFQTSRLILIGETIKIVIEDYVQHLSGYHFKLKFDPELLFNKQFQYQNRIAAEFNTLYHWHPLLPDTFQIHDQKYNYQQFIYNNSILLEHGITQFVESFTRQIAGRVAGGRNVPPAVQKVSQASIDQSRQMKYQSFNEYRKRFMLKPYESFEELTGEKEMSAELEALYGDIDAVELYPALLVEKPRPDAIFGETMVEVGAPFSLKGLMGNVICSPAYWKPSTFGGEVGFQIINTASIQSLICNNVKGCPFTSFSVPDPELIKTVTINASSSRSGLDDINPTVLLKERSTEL
Parameter: log10(IC50). Scope: all listed entries.
Form field - Quantity: IC50; Unit: µM; Scale: log10

Worked examples follow.
CCc1cc(C(=O)c2ccccc2)ccc1/C=C/S(N)(=O)=O: 0.75
Cc1ccc(/C=C/S(N)(=O)=O)cc1C(=O)c1ccccc1: 1.28
CCc1cc(/C=C/C(=O)O)cc(C(=O)c2ccccc2)c1: 0.41
CCN(CC)Cc1cc(/C=C/S(N)(=O)=O)cc(C(=O)c2ccccc2)c1: 0.85

Reported log10(IC50) ( `CCc1ccc(/C=C/S(N)(=O)=O)cc1C(=O)c1ccccc1` ) = -0.11

Reported log10(IC50) ( `CC(=O)c1cc(/C=C/S(N)(=O)=O)cc(C(=O)c2ccccc2)c1` ) = 1.30
